Origin of measurements: ChEMBL document CHEMBL1153383

The following molecules are shown together with reported Activity values.
Molecular target: Adenosine receptor A3 (Homo sapiens)
Sequence (whole entry): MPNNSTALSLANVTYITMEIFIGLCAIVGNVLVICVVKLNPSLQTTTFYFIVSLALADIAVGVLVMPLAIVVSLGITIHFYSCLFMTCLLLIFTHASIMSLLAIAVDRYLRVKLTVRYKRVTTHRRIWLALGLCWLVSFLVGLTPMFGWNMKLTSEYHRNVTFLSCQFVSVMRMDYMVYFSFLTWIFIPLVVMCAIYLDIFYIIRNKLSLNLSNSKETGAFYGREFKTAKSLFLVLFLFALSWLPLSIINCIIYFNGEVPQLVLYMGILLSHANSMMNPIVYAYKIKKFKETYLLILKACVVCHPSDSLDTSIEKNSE
Test: Decrease in dissociation of [125I]I-AB-MECA from human recombinant adenosine A3 receptor expressed in CHO cells at 10 uM after 60 mins relative to control
Assay type: cell-based
Set-up: scale not given: the % may be the effect or the level left
Give your result in % as a bare value.

Solved cases (2 shown):
c1cncc(Nc2nc3ccccc3c3[nH]c(C4CCCCC4)nc23)c1	114
O=C1c2ccccc2C(=O)N1[C@H]1CC[C@@H](c2nc3c(Nc4ccc(Cl)c(Cl)c4)nc4ccccc4c3[nH]2)CC1	102

Exercise: In one line, give reported Activity of the entry N#Cc1ccc(Nc2nc3ccccc3c3nc(C4CCCCC4)[nH]c23)cc1C#N .
Key: 129

Exercise: In one line, give reported Activity of the entry Clc1ccc(Nc2nc3ccccc3c3[nH]c(C4CCN(Cc5ccccc5)CC4)nc23)cc1Cl .
Key: 93

Exercise: In one line, give reported Activity of the entry Clc1cc(Cl)cc(Nc2nc3ccccc3c3[nH]c(C4CCCCC4)nc23)c1 .
Key: 184

Exercise: In one line, give reported Activity of the entry O=C(c1ccccc1)N1CCC(c2nc3c(Nc4ccc(Cl)c(Cl)c4)nc4ccccc4c3[nH]2)CC1 .
Key: 91

====

The following compounds are shown together with reported Activity values.
Biological target: Adenosine receptor A3 (Homo sapiens)
Sequence (whole entry): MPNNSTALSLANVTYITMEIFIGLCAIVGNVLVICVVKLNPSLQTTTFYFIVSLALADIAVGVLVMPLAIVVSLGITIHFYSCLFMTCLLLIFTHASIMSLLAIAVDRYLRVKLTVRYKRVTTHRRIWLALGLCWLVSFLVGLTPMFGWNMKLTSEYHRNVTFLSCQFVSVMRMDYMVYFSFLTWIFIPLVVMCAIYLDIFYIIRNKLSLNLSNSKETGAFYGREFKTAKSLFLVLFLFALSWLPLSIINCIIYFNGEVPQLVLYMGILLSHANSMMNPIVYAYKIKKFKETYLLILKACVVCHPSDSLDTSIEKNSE
Assay: Displacement of [125I]I-AB-MECA from human recombinant adenosine A3 receptor expressed in CHO cells at 10 uM
Format: cell-based
Give your result in % as a bare value.

Exercise: Report Activity under test system Adenosine receptor A3 (Homo sapiens) for Clc1ccc(Nc2nc3ccccc3c3[nH]c(C45CC6CC(CC(C6)C4)C5)nc23)cc1Cl .
Key: 17.2

Exercise: Report Activity under test system Adenosine receptor A3 (Homo sapiens) for Clc1ccc(Nc2nc3ccccc3c3[nH]c(C4CCOCC4)nc23)cc1Cl .
Key: 69.6

Exercise: Report Activity under test system Adenosine receptor A3 (Homo sapiens) for Clc1cc(Cl)cc(Nc2nc3ccccc3c3[nH]c(C4CCCCC4)nc23)c1 .
Key: 32.7

====

The following compounds are shown together with reported Activity values.
Target: Adenosine receptor A3 (Homo sapiens) (UniProt P0DMS8)
Test: Decrease in dissociation of [125I]I-AB-MECA from human recombinant adenosine A3 receptor expressed in CHO cells at 10 uM after 60 mins relative to control
Type: cell-based
Design: scale not given: the % may be the effect or the level left
Just so you know, I need the unit written after the number.

Solved cases (3 shown):
Clc1ccc(Nc2nc3ccccc3c3[nH]c(C4CCCCC4)nc23)c(Cl)c1	174%
Clc1ccc(Nc2nc3ccccc3c3[nH]c(C45CC6CC(CC4C6)C5)nc23)cc1Cl	139%
Clc1ccc(Nc2nc3ccccc3c3[nH]c([C@H]4C[C@H]5CC[C@@H]4C5)nc23)cc1Cl	187%

Exercise: In one line, give reported Activity of the entry Clc1ccc(Nc2nc3ccccc3c3[nH]c(C45CC6CC(CC(C6)C4)C5)nc23)cc1Cl .
Key: 196%

Exercise: In one line, give reported Activity of the entry O=C(c1ccccc1)N1CCC(c2nc3c(Nc4ccccc4)nc4ccccc4c3[nH]2)CC1 .
Key: 92%

Exercise: In one line, give reported Activity of the entry Clc1ccc(Nc2nc3ccccc3c3[nH]c([C@H]4C[C@H]5CC[C@H]4C5)nc23)cc1Cl .
Key: 168%

Exercise: In one line, give reported Activity of the entry N[C@H]1CC[C@@H](c2nc3c(Nc4ccc(Cl)c(Cl)c4)nc4ccccc4c3[nH]2)CC1 .
Key: 107%

Exercise: In one line, give reported Activity of the entry Clc1ccc(Nc2nc3ccccc3c3[nH]c(C4CCOCC4)nc23)cc1Cl .
Key: 115%

Exercise: In one line, give reported Activity of the entry Clc1cccc(Nc2nc3ccccc3c3[nH]c(C4CCCCC4)nc23)c1 .
Key: 194%

Exercise: In one line, give reported Activity of the entry COc1ccc(Nc2nc3ccccc3c3[nH]c(C4CCCCC4)nc23)cc1OC .
Key: 173%

Exercise: In one line, give reported Activity of the entry Clc1ccc(Nc2nc3ccccc3c3[nH]c(C4CCNCC4)nc23)cc1Cl .
Key: 101%

Exercise: In one line, give reported Activity of the entry c1ccc2c(c1)nc(Nc1ccc3c(c1)OCO3)c1nc(C3CCCCC3)[nH]c12 .
Key: 185%

====

The following compounds are shown together with reported Activity values.
Target: Adenosine receptor A3 (Homo sapiens)
Experiment: Displacement of [125I]I-AB-MECA from human recombinant adenosine A3 receptor expressed in CHO cells at 10 uM
Type: cell-based
Give your result in % as a bare value.

Solved cases (6 shown):
Clc1ccc(Nc2nc3ccccc3c3[nH]c(C4CCN(Cc5ccccc5)CC4)nc23)cc1Cl	46.3
c1cncc(Nc2nc3ccccc3c3[nH]c(C4CCCCC4)nc23)c1	64.8
N#Cc1ccc(Nc2nc3ccccc3c3nc(C4CCCCC4)[nH]c23)cc1C#N	42.2
Clc1cccc(Nc2nc3ccccc3c3[nH]c(C4CCCCC4)nc23)c1	79.2
Clc1ccc(Nc2nc3ccccc3c3[nH]c([C@H]4C[C@H]5CC[C@@H]4C5)nc23)cc1Cl	61.2
O=C(c1ccccc1)N1CCC(c2nc3c(Nc4ccccc4)nc4ccccc4c3[nH]2)CC1	35.3

Exercise: In one line, give reported Activity of the entry Fc1ccc(Nc2nc3ccccc3c3[nH]c(C4CCCCC4)nc23)cc1F .
Key: 68.8

Exercise: In one line, give reported Activity of the entry O=C1c2ccccc2C(=O)N1[C@H]1CC[C@@H](c2nc3c(Nc4ccc(Cl)c(Cl)c4)nc4ccccc4c3[nH]2)CC1 .
Key: 5.6

Exercise: In one line, give reported Activity of the entry Clc1ccc(Nc2nc3ccccc3c3[nH]c(C4CCNCC4)nc23)cc1Cl .
Key: 52.8

====

Biological target: UniProtKB P29274
Sequence (P29274 whole entry): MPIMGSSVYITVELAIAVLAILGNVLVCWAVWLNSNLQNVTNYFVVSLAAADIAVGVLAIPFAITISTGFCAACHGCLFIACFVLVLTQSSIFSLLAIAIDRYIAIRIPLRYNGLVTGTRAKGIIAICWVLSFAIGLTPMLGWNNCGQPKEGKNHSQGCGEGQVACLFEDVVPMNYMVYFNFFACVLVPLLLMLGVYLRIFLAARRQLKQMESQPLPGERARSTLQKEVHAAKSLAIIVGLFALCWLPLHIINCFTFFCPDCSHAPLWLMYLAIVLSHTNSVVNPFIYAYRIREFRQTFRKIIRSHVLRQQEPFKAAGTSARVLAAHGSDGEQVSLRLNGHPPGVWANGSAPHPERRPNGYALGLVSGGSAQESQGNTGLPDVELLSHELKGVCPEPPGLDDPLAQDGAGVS
Test: Displacement of [3H]CGS21680 from human recombinant adenosine A2A receptor expressed in HEK293 cells at 10 uM
Type: cell-based
property-measured: Activity

Solved cases (3 shown):
Clc1ccc(Nc2nc3ccccc3c3[nH]c(C4CCCC4)nc23)cc1Cl	0%
O=C1c2ccccc2C(=O)N1[C@H]1CC[C@@H](c2nc3c(Nc4ccc(Cl)c(Cl)c4)nc4ccccc4c3[nH]2)CC1	56.8%
Clc1ccc(Nc2nc3ccccc3c3[nH]c(C4CCOCC4)nc23)cc1Cl	-11.9%

# input for lookup
Exercise: In one line, give reported Activity of the entry Clc1ccc(Nc2nc3ccccc3c3[nH]c(C4CCCCCC4)nc23)cc1Cl .
Key: -2.2%

====

Target: Adenosine receptor A3 (Homo sapiens)
Assay: Increase in efficacy of stimulation of [35S]GTPgammaS binding to human adenosine A3 receptor expressed in CHO cells at 10 uM by liquid scintillation counting relative to C1-IB-MECA
Assay type: functional, cell-based
property-measured: Activity (%)
Give your result in % as a bare value.

Clc1cc(Cl)cc(Nc2nc3ccccc3c3[nH]c(C4CCCCC4)nc23)c1	209
c1ccc2c(c1)nc(Nc1ccc3c(c1)OCO3)c1nc(C3CCCCC3)[nH]c12	166
COc1ccc(Nc2nc3ccccc3c3[nH]c(C4CCCCC4)nc23)cc1OC	182
Fc1cc(F)cc(Nc2nc3ccccc3c3[nH]c(C4CCCCC4)nc23)c1	171

# input for lookup
Exercise: In one line, give reported Activity of the entry FC(F)(F)c1cc(Nc2nc3ccccc3c3nc(C4CCCCC4)[nH]c23)cc(C(F)(F)F)c1 .
Key: 143
